# Tested on: TNFα release from human peripheral blood mononuclear cells
# EXPERIMENTAL_PROTOCOL: Inhibition of TNFα release from LPS-stimulated human peripheral blood mononuclear cells (TNFα screen)
# Type: cell-based
# MEASUREMENT_PARAMETERS: PBMC, 18 hours incubation, TNFα in supernatant by ELISA
EXPERIMENTAL_READOUT: pIC50
Please report pIC50 as the negative decimal logarithm of the molar concentration, giving only the number.

Request: Identify measured pIC50 corresponding to Cc1ccccc1S(=O)(=O)N[C@H]1CC[C@@H](NC(=O)c2cc(F)cnc2OC2CCSCC2)CC1
Result: 8.70

Request: Please give the documented pIC50 of O=C(N[C@H]1CC[C@@H](NC(=O)c2cccn3c(CO)cnc23)CC1)c1cc(F)cnc1OC1CCSCC1
Result: 10.00

Request: Using the record for O=C(N[C@H]1CC[C@@H](NC(=O)c2ccnc3c(O)cccc23)CC1)c1cc(F)cnc1OC1CCSCC1 , state its measured pIC50.
Result: 8.00

Request: Give a short answer stating reported pIC50 for Cc1cc(C(=O)N[C@H]2CC[C@@H](NC(=O)c3cc(F)cnc3OC3CCSCC3)CC2)nn1CCO .
Result: 10.52

Request: Supply recorded pIC50 for O=C(N[C@H]1CC[C@@H](NC(=O)c2cccc3cn[nH]c23)CC1)c1cc(F)cnc1OC1CCSCC1 here.
Result: 10.15

Request: Fill in pIC50 for record Cc1cnc(OC2CCSCC2)c(C(=O)N[C@H]2CC[C@@H](NC(=O)c3cc(CO)ccc3O)CC2)c1
Result: 7.92

Request: Output measured pIC50 for this item: O=C(N[C@H]1CC[C@@H](NS(=O)(=O)c2cccc3cccnc23)CC1)c1cccnc1OC1CCSCC1
Result: 10.70

Request: Entry Cc1cc(C(=O)N[C@H]2CC[C@@H](NC(=O)c3cc(F)cnc3OC3CCSCC3)CC2)nn1C needs its pIC50 filled in; supply it.
Result: 10.70

Request: Item O=C(N[C@H]1CC[C@@H](NC(=O)c2nn(CCO)c3ccccc23)CC1)c1cc(F)cnc1OC1CCSCC1 : provide pIC50
Result: 11.00

Request: Provide one value: measured pIC50 of CC(C)c1cc(C(=O)N[C@H]2CC[C@@H](NC(=O)c3cc(F)cnc3OC3CCSCC3)CC2)nn1CCO
Result: 10.15

Request: Name the recorded pIC50 of the compound listed here: O=C(N[C@H]1CC[C@@H](NC(=O)c2cc(O)nc3ccccc23)CC1)c1cc(F)cnc1OC1CCSCC1
Result: 8.70

Request: Determine its reported pIC50: Cc1cccc(C(=O)N[C@H]2CC[C@@H](NC(=O)c3cc(F)cnc3OC3CCSCC3)CC2)c1O
Result: 7.92

Request: Fill in reported pIC50 for this entry: O=C(N[C@H]1CC[C@@H](NC(=O)c2cc(Cl)cnc2OC2CCSCC2)CC1)c1cc(CO)ccc1O
Result: 8.52

Request: Return pIC50 (reported value) for this compound: O=C(N[C@H]1CC[C@@H](NC(=O)c2cc(F)cnc2OC2CCSCC2)CC1)c1cc(F)ccc1O
Result: 9.10

Request: Give a short answer stating reported pIC50 for O=C(N[C@H]1CC[C@@H](NC(=O)c2cc(F)cnc2OC2CCSCC2)CC1)c1ccc(O)cc1O .
Result: 9.00

Request: Recall and state the measured pIC50 for CCc1cc(C(=O)N[C@H]2CC[C@@H](NC(=O)c3cc(F)cnc3OC3CCSCC3)CC2)n(CCO)n1 .
Result: 7.77

Request: Please report the measured pIC50 for O=C(N[C@H]1CC[C@@H](NS(=O)(=O)c2c(O)ccc3nsnc23)CC1)c1cc(F)cnc1OC1CCSCC1
Result: 9.00

Request: Identify pIC50 associated with the compound O=C(N[C@H]1CC[C@@H](NC(=O)c2cc(F)cnc2OC2CCSCC2)CC1)c1ccc(Cl)cc1O
Result: 9.40

Request: Give reported pIC50 value for Cc1ccc(S(=O)(=O)N[C@H]2CC[C@@H](NC(=O)c3cc(F)cnc3OC3CCSCC3)CC2)cc1
Result: 7.82

Request: Annotate the compound Cc1cc(C(=O)N[C@H]2CC[C@@H](NC(=O)c3cc(F)cnc3OC3CCSCC3)CC2)c2cc(O)ccc2n1 with its measured pIC50.
Result: 9.00

###

# System: TNFα release from human peripheral blood mononuclear cells
# EXPERIMENTAL_PROTOCOL: Inhibition of TNFα release from LPS-stimulated human peripheral blood mononuclear cells (TNFα screen)
# Type: cell-based
# MEASUREMENT_PARAMETERS: PBMC, 18 hours incubation, TNFα in supernatant by ELISA
pIC50: −log10 of the molar value.
Assign Condition met whenever pIC50 does not fall below 10; assign Condition not met whenever it does.

Request: Given CC(C)c1cc(C(=O)N[C@H]2CC[C@@H](NC(=O)c3cc(F)cnc3OC3CCSCC3)CC2)n(CCO)n1 , state whether its pIC50 is at least 10.
Result: Condition not met

Request: Test whether the molecule O=C(N[C@H]1CC[C@@H](NC(=O)c2cc(F)cnc2OC2CCSCC2)CC1)c1ccc2cn[nH]c2c1 records pIC50 of 10 or higher.
Result: Condition not met

Request: Confirm if pIC50 reported for the molecule O=C(N[C@H]1CC[C@@H](NC(=O)c2cc(F)cnc2OC2CCSCC2)CC1)c1ccccc1O is 10 or above.
Result: Condition not met

Request: Could you please find out whether Cc1ccc(C(=O)N[C@H]2CC[C@@H](NC(=O)c3cc(F)cnc3OC3CCSCC3)CC2)c(O)c1 has pIC50 that meets 10 or exceeds it?
Result: Condition met

Request: Item O=C(N[C@H]1CC[C@@H](NC(=O)c2cc(F)cnc2OC2CCSCC2)CC1)c1cc(Cl)ccc1O with pIC50 of 10 or above?
Result: Condition not met
